Source: the supplement of paper PMC10567573

B1: C20orf112 (parent)
chain: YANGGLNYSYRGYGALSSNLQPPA

Variants of: B1
Assay: protein stability index of a GFP-peptide fusion (GPS, HEK-293T) (PSI 1-6); higher = more stable;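 note: lentivirally expressed fusions sorted by FACS into six bins by GFP to DsRed ratio, PSI derived from sequencing read proportions per bin multiplied by bin number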
Details: c terminus: a fixed tail appended
# if value of protein stability index reaches 2, tag True; if it stays below, tag False

{"mutant_name": "G5M", "group": "True"}
{"mutant_name": "R11L", "group": "True"}
{"mutant_name": "G4M", "group": "False"}
{"mutant_name": "Q21C", "group": "False"}
{"mutant_name": "L16W", "group": "True"}

Has S17N a recorded protein stability index greater than or equal to 2? False

Please check the record A24F and state if its protein stability index is at or above 2. False

Does protein stability index meet or surpass 2 for Y10C ? True
